Numbers sourced from paper PMC5700166.

Target: GST-Hu-p50 (Homo sapiens, UniProt P19838 7-356)
Sequence (P19838 7-356): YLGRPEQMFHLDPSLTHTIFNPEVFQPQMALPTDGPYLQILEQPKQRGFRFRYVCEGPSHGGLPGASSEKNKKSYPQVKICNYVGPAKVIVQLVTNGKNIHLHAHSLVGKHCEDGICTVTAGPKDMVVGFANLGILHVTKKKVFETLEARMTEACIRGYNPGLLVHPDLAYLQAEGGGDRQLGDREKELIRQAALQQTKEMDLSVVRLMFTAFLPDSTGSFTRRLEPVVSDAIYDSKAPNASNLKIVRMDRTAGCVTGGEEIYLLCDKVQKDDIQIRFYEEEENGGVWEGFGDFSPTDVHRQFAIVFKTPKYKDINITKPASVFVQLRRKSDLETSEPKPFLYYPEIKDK
Assay: protein-binding microarray (PBM); PBM: ~300 nM protein, 6 mM HEPES pH 7.8, 80 mM KCl, 0.5 mM EDTA, 0.5 mM EGTA, 6% glycerol, 35 ng/ul poly-dIdC, 1% milk, 1 h, room temperature; Ap Aiptasia and Nv Nematostella (sea anemones) / Co Capsaspora / Aq Amphimedon (sponge) / Dm Drosophila / Hu human; RHD is the Rel homology domain; high values mean tight binding
Details: dsDNA, one strand shown
measureName: binding signal (z-score)
Number only, in z-score; omit the unit.

Worked set:
- residueString: "CCGATTAACATCAAGAACCCCCGTGATGTTAATCGGGTCTTGATTCGCTTGACGCTGCTG"
  studyTarget: "GST-Hu-p50 (Homo sapiens, UniProt P19838 7-356)"
  binding signal (z-score): 5.41
- residueString: "CCGATTAACATCAGGGGACTTTATGATGTTAATCGGGTCTTGATTCGCTTGACGCTGCTG"
  studyTarget: "GST-Hu-p50 (Homo sapiens, UniProt P19838 7-356)"
  binding signal (z-score): 6.72
- residueString: "CCGATTAACATCAGGAAAGTCCCTGATGTTAATCGGGTCTTGATTCGCTTGACGCTGCTG"
  studyTarget: "GST-Hu-p50 (Homo sapiens, UniProt P19838 7-356)"
  binding signal (z-score): 7.09
- residueString: "CCGATTAACATCACGGGTTCCCCTGATGTTAATCGGGTCTTGATTCGCTTGACGCTGCTG"
  studyTarget: "GST-Hu-p50 (Homo sapiens, UniProt P19838 7-356)"
  binding signal (z-score): 4.64

// query Report binding signal for CCGATTAACATCATAATTCCCCATGATGTTAATCGGGTCTTGATTCGCTTGACGCTGCTG please.
// result 6.35

// query Report binding signal for CCGATTAACATCAGAAAATTCCCTGATGTTAATCGGGTCTTGATTCGCTTGACGCTGCTG please.
// result 6.47
